biological target: PC4 (hSub1, p15) (human, UniProt P53999 1-127); test: fluorescence anisotropy
For each of the binders below, state its pKd.
pKd here is simply -log10 of the concentration when that concentration is written in mol/L.

Inquiry: Please indicate pKd recorded for Duplex (FAM) (dsDNA) DNA 1: GATACTATTGGGTGGGTAGGGTGGGTTTACATGT DNA 2: ACATGTAAACCCACCCTACCCACCCAATAGTATC
Reply text: 7.41

Inquiry: Please indicate pKd recorded for GGTGTGTGGAGCGTGCGTTT (ssDNA) [ssDNA (FAM)]
Reply text: 8.05
